The following molecules are listed with their measured Max Editing values.
- Test system: TTR
- Assay protocol: TTR editing dose response (EC50, maximum editing) in primary human hepatocytes treated with LNP formulated U-depleted Spy Cas9 mRNA and sgRNAs
- Format: cell-based
- Experimental parameters: LNP formulated U-depleted Spy Cas9 mRNA and human specific sgRNAs, dose response
Strand notation (5' to 3'): a small letter for the sugar, then the base; units joined by * are phosphorothioate-linked, units joined directly phosphodiester-linked; [ ] holds rarer units or linkages, { } end groups; capitals alone tell only the bases. m = 2'-O-methyl; r = 2'-OH (RNA)
Parameter: Max Editing (%)

# Molecule, Parameter, Assay value
records = [
    ("G000493: TTR sgRNA modified sequence, Human, SEQ ID NO: 100; guide sequence of CR003368 (nucleic acid) guide: mA*mA*mG*rUrGrCrCrUrUrCrCrArGrUrArArGrArUrUrGrUrUrUrUrArGrAmGmCmUmAmGmAmAmAmUmAmGmCrArArGrUrUrArArArArUrArArGrGrCrUrArGrUrCrCrGrUrUrArUrCrAmAmCmUmUmGmAmAmAmAmAmGmUmGmGmCmAmCmCmGmAmGmUmCmGmGmUmGmCmU*mU*mU*mU", "Max Editing", 63.95),
    ("G000489: TTR sgRNA modified sequence, Human, SEQ ID NO: 96; guide sequence of CR003344 (nucleic acid) guide: mU*mU*mU*rGrArCrCrArUrCrArGrArGrGrArCrArCrUrGrUrUrUrUrArGrAmGmCmUmAmGmAmAmAmUmAmGmCrArArGrUrUrArArArArUrArArGrGrCrUrArGrUrCrCrGrUrUrArUrCrAmAmCmUmUmGmAmAmAmAmAmGmUmGmGmCmAmCmCmGmAmGmUmCmGmGmUmGmCmU*mU*mU*mU", "Max Editing", 86.33),
    ("G000488: TTR sgRNA modified sequence, Human, SEQ ID NO: 95; guide sequence of CR003346 (nucleic acid) guide: mA*mA*mA*rGrUrUrCrUrArGrArUrGrCrUrGrUrCrCrGrGrUrUrUrUrArGrAmGmCmUmAmGmAmAmAmUmAmGmCrArArGrUrUrArArArArUrArArGrGrCrUrArGrUrCrCrGrUrUrArUrCrAmAmCmUmUmGmAmAmAmAmAmGmUmGmGmCmAmCmCmGmAmGmUmCmGmGmUmGmCmU*mU*mU*mU", "Max Editing", 95.83),
    ("G000570: TTR sgRNA modified sequence, Human, SEQ ID NO: 111; guide sequence of CR003347 (nucleic acid) guide: mC*mA*mU*rUrGrArUrGrGrCrArGrGrArCrUrGrCrCrUrGrUrUrUrUrArGrAmGmCmUmAmGmAmAmAmUmAmGmCrArArGrUrUrArArArArUrArArGrGrCrUrArGrUrCrCrGrUrUrArUrCrAmAmCmUmUmGmAmAmAmAmAmGmUmGmGmCmAmCmCmGmAmGmUmCmGmGmUmGmCmU*mU*mU*mU", "Max Editing", 98.22),
    ("G000490: TTR sgRNA modified sequence, Human, SEQ ID NO: 97; guide sequence of CR003366 (nucleic acid) guide: mA*mA*mA*rUrArGrArCrArCrCrArArArUrCrUrUrArCrGrUrUrUrUrArGrAmGmCmUmAmGmAmAmAmUmAmGmCrArArGrUrUrArArArArUrArArGrGrCrUrArGrUrCrCrGrUrUrArUrCrAmAmCmUmUmGmAmAmAmAmAmGmUmGmGmCmAmCmCmGmAmGmUmCmGmGmUmGmCmU*mU*mU*mU", "Max Editing", 94.16),
    ("G000568: TTR sgRNA modified sequence, Human, SEQ ID NO: 110; guide sequence of CR003391 (nucleic acid) guide: mG*mG*mC*rUrGrUrCrGrUrCrArCrCrArArUrCrCrCrArGrUrUrUrUrArGrAmGmCmUmAmGmAmAmAmUmAmGmCrArArGrUrUrArArArArUrArArGrGrCrUrArGrUrCrCrGrUrUrArUrCrAmAmCmUmUmGmAmAmAmAmAmGmUmGmGmCmAmCmCmGmAmGmUmCmGmGmUmGmCmU*mU*mU*mU", "Max Editing", 95.72),
    ("G000482: TTR sgRNA modified sequence, Human, SEQ ID NO: 89; guide sequence of CR003365 (nucleic acid) guide: mU*mG*mU*rArGrArArGrGrGrArUrArUrArCrArArArGrGrUrUrUrUrArGrAmGmCmUmAmGmAmAmAmUmAmGmCrArArGrUrUrArArArArUrArArGrGrCrUrArGrUrCrCrGrUrUrArUrCrAmAmCmUmUmGmAmAmAmAmAmGmUmGmGmCmAmCmCmGmAmGmUmCmGmGmUmGmCmU*mU*mU*mU", "Max Editing", 97.02),
    ("G000483: TTR sgRNA modified sequence, Human, SEQ ID NO: 90; guide sequence of CR005298 (nucleic acid) guide: mU*mC*mC*rArCrUrCrArUrUrCrUrUrGrGrCrArGrGrArGrUrUrUrUrArGrAmGmCmUmAmGmAmAmAmUmAmGmCrArArGrUrUrArArArArUrArArGrGrCrUrArGrUrCrCrGrUrUrArUrCrAmAmCmUmUmGmAmAmAmAmAmGmUmGmGmCmAmCmCmGmAmGmUmCmGmGmUmGmCmU*mU*mU*mU", "Max Editing", 77.39),
    ("G000572: TTR sgRNA modified sequence, Human, SEQ ID NO: 113; guide sequence of CR003385 (nucleic acid) guide: mC*mC*mC*rCrUrArCrUrCrCrUrArUrUrCrCrArCrCrArGrUrUrUrUrArGrAmGmCmUmAmGmAmAmAmUmAmGmCrArArGrUrUrArArArArUrArArGrGrCrUrArGrUrCrCrGrUrUrArUrCrAmAmCmUmUmGmAmAmAmAmAmGmUmGmGmCmAmCmCmGmAmGmUmCmGmGmUmGmCmU*mU*mU*mU", "Max Editing", 97.94),
    ("G000481: TTR sgRNA modified sequence, Human, SEQ ID NO: 88; guide sequence of CR003345 (nucleic acid, sugars from the 5' end m3 r25 m12 r28 m32, backbone not given here; further chemistry not fully specified) guide: UCUAGAACUUUGACCAUCAGGUUUUAGAGCUAGAAAUAGCAAGUUAAAAUAAGGCUAGUCCGUUAUCAACUUGAAAAAGUGGCACCGAGUCGGUGCUUUU", "Max Editing", 87.05),
    ("G000484: TTR sgRNA modified sequence, Human, SEQ ID NO: 91; guide sequence of CR003367 (nucleic acid) guide: mA*mG*mA*rCrArCrCrArArArUrCrUrUrArCrUrGrGrArGrUrUrUrUrArGrAmGmCmUmAmGmAmAmAmUmAmGmCrArArGrUrUrArArArArUrArArGrGrCrUrArGrUrCrCrGrUrUrArUrCrAmAmCmUmUmGmAmAmAmAmAmGmUmGmGmCmAmCmCmGmAmGmUmCmGmGmUmGmCmU*mU*mU*mU", "Max Editing", 94.14),
]
